Tested on: DU-145 prostate
Experiment: NCI-60 one-dose screen, 48 h
Details: 10 µM unless noted
About 83,000 compounds went through this panel and 20% of them were active in at least one assay; those are over-represented in the sample as a whole. Active and inactive are the calls of the source. Rule for the calls: active = growth percent below 10; inactive = the rest.
// classify into active, inactive

Prompt: # fetch the recorded call for `CCN1CCN(C(=O)[C@]23CC[C@@H](C)[C@H](C)[C@@H]2C2=CC[C@@H]4[C@@]5(C)C/C(=C/c6cccnc6)C(=O)C(C)(C)[C@@H]5CC[C@@]4(C)[C@]2(C)CC3)CC1` here
Completion: inactive

Prompt: # fetch the recorded call for `O=S(=O)(NCCCNc1nccc(-c2c(-c3cccc(F)c3)nc3occn23)n1)c1ccc(F)cc1` here
Completion: inactive

Prompt: # fetch the recorded call for `Cc1nc2c(=O)nc3s/c(=C\c4ccco4)c(=O)n3c2nc1C` here
Completion: inactive

Prompt: # fetch the recorded call for O=C(C1CCCCC1)[C@@H]1[C@]2(C(=O)NC3CCCCC32)[C@@H]2CCCN2[C@@]12C(=O)NC1CCC(Cl)CC12 (some centres undefined) here
Completion: active
